target_or_test_system: CSF1R (Homo sapiens, UniProt P07333)
Sequence (P07333 20-972): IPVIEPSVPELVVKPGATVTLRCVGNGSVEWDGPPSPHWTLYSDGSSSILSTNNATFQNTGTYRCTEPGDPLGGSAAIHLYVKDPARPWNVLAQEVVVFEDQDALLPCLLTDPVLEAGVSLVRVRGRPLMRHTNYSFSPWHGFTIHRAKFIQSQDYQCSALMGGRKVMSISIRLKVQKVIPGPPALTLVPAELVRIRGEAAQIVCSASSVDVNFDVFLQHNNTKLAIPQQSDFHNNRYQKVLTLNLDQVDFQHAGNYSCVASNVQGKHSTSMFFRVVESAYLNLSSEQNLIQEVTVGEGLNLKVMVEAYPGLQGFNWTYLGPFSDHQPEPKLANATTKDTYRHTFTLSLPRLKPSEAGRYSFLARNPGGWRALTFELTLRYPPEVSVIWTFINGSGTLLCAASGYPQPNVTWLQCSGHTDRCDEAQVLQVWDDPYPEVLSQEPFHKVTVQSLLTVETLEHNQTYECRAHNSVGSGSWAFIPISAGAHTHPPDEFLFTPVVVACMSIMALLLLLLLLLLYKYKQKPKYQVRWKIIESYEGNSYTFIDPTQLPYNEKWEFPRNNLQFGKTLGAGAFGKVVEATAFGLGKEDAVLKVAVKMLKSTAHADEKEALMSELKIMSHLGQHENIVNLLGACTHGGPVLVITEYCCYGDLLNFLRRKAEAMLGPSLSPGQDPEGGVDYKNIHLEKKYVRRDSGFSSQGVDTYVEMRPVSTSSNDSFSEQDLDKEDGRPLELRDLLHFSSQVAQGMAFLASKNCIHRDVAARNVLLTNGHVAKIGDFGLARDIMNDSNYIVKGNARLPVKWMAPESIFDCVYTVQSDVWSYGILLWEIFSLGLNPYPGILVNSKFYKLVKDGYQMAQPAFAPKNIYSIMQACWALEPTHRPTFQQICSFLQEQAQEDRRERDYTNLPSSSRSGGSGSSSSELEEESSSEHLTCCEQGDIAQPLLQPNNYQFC
experiment_description: Competition binding assay, CSF1R Kd
Parameters: made in house
experimental_context: competition binding
value_type: Kd

Past entries and their recorded results:
molecule: O[C@@H]1CCCC[C@H]1Nc1nc2ccc(Cn3cnc4cc(OCCN5CCOCC5)ccc43)cc2s1 [Example 171]
target_or_test_system: CSF1R (Homo sapiens, UniProt P07333)
result: 5 to 20 nM

molecule: N#Cc1cnc2c(c1)ncn2Cc1ccc2nc(N[C@@H]3CCCC[C@H]3CO)sc2c1 [Example 140]
target_or_test_system: CSF1R (Homo sapiens, UniProt P07333)
result: 5 to 20 nM

// next item, Kd requested
Exercise: Look up Kd for this molecule: CC(=O)c1ccc2ncn(Cc3ccc4nc(N[C@@H]5CCCC[C@H]5O)sc4c3)c2c1 [Example 120]
Solution: 5 to 20 nM

Data provenance: patent US9938261B2
